target desc: von Hippel-Lindau disease tumor suppressor/Androgen receptor (Homo sapiens) (UniProt P10275+P40337)
Sequence (P10275 whole entry, looked up): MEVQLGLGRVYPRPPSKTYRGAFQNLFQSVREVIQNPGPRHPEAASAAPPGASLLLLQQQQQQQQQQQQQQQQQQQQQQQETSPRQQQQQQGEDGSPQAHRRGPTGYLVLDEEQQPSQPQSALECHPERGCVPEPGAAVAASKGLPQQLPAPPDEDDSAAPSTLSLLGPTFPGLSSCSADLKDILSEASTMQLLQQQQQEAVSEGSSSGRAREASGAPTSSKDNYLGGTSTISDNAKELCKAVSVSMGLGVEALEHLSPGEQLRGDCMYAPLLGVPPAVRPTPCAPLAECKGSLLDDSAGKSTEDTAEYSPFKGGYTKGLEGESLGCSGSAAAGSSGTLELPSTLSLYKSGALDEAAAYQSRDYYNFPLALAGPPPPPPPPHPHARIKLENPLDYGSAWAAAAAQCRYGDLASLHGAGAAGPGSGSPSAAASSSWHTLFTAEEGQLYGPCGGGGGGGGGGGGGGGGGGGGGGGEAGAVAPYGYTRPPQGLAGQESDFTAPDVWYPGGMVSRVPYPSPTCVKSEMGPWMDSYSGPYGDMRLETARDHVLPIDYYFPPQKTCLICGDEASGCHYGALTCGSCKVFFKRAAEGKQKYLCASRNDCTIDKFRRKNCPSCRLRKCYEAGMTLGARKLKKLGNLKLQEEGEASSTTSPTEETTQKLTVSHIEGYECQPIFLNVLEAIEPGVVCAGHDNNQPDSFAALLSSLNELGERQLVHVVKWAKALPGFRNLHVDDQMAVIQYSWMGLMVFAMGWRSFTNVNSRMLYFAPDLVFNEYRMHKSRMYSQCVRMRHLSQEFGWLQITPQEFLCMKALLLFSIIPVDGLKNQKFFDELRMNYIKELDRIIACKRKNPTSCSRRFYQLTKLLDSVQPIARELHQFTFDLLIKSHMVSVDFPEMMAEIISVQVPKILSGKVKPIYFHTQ
Sequence (P40337 whole entry, looked up): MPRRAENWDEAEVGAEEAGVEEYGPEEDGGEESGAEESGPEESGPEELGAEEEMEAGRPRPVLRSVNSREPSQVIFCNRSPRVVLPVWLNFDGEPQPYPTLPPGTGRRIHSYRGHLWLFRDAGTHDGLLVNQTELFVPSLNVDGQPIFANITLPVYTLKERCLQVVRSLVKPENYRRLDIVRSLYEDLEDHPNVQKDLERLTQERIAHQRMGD
method: Protac activity at VHL/AR in human LNCaP cells assessed as degradation of AR at 0.1 uM measured after 6 hrs by Western blot analysis relative to control
Assay type: cell-based
recorded metric: Activity (%)

Some solved entries appear below for comparison.
compound: Cc1cc([C@H](C(=O)N2C[C@H](O)C[C@H]2C(=O)N[C@@H](CC(=O)N2CCC(N3CCC(C#Cc4ccc(C(=O)N[C@H]5C(C)(C)[C@H](Oc6ccc(C#N)c(Cl)c6)C5(C)C)cc4)CC3)CC2)c2ccc(-c3scnc3C)cc2)C(C)C)on1
unit symbol: %
Activity: 98
//
compound: Cc1ncsc1-c1ccc([C@H](CC(=O)N2CCC(N3CCC(C#Cc4ccc(C(=O)N[C@H]5C(C)(C)[C@H](Oc6ccc(C#N)c(Cl)c6)C5(C)C)cc4)CC3)CC2)NC(=O)[C@@H]2C[C@@H](O)CN2C(=O)[C@@H](NC(=O)C2(C#N)CC2)C(C)(C)C)cc1
unit symbol: %
Activity: 99
//
compound: Cc1cc([C@H](C(=O)N2C[C@H](O)C[C@H]2C(=O)N[C@@H](CC(=O)NN2CCC(N3CCC(C#Cc4ccc(N5C(=S)N(c6ccc(C#N)c(C(F)(F)F)c6)C(=O)C5(C)C)cc4)CC3)CC2)c2ccc(-c3scnc3C)cc2)C(C)C)on1
unit symbol: %
Activity: 81

[P] Cc1ncsc1-c1ccc([C@H](CC(=O)N2CCC(N3CCC(C#Cc4ccc(C(=O)N[C@H]5C(C)(C)[C@H](Oc6ccc(C#N)c(Cl)c6)C5(C)C)cc4)CC3)CC2)NC(=O)[C@@H]2C[C@@H](O)CN2C(=O)[C@@H](NC(=O)C2(F)CC2)C(C)(C)C)cc1
[Q] CC1(C)[C@H](NC(=O)c2ccc(C#CC3CCN(C4CCN(c5cccc6c5C(=O)N(C5CCC(=O)NC5=O)C6=O)CC4)CC3)cc2)C(C)(C)[C@H]1Oc1ccc(C#N)c(Cl)c1 (stereo partly specified)
Req: Field: lower Activity | Options: P / Q Output the label that corresponds to your choice.
Resp: Q

----------
target desc: von Hippel-Lindau disease tumor suppressor/Androgen receptor (Homo sapiens) (UniProt P10275+P40337)
method: Protac activity at VHL/AR in human LNCaP cells assessed as degradation of AR at 0.1 uM measured after 6 hrs by Western blot analysis relative to control
Type: cell-based
recorded metric: Activity (%)

chemical structure: Cc1cc([C@H](C(=O)N2C[C@H](O)C[C@H]2C(=O)N[C@@H](CC(=O)N2CCC(N3CCC(C#Cc4ccc(Cc5c(C)nn(-c6ccc(C#N)c(Cl)c6)c5C)cc4)CC3)CC2)c2ccc(-c3scnc3C)cc2)C(C)C)on1
Activity / %: 65
--
chemical structure: CC(=O)N[C@H](C(=O)N1C[C@H](O)C[C@H]1C(=O)N[C@@H](CC(=O)N1CCC(N2CCC(C#Cc3ccc(C(=O)N[C@H]4C(C)(C)[C@H](Oc5ccc(C#N)c(Cl)c5)C4(C)C)cc3)CC2)CC1)c1ccc(-c2scnc2C)cc1)C(C)(C)C
Activity / %: 77

----------
target desc: von Hippel-Lindau disease tumor suppressor/Androgen receptor (Homo sapiens) (UniProt P10275+P40337)
method: Protac activity at VHL/AR in human LNCaP cells assessed as degradation of AR at 0.01 uM measured after 6 hrs by Western blot analysis relative to control
Assay type: cell-based
recorded metric: Activity (%)

chemical structure: Cc1cc([C@H](C(=O)N2C[C@H](O)C[C@H]2C(=O)N[C@@H](CC(=O)NN2CCC(N3CCC(C#Cc4ccc(N5C(=S)N(c6cnc(C#N)c(C(F)(F)F)c6)C(=O)C56CCC6)cc4)CC3)CC2)c2ccc(-c3scnc3C)cc2)C(C)C)on1
unit symbol: %
Activity: 38

chemical structure: Cc1ncsc1-c1ccc([C@H](CC(=O)N2CCC(N3CCC(C#Cc4ccc(C(=O)N[C@H]5C(C)(C)[C@H](Oc6ccc(C#N)c(Cl)c6)C5(C)C)cc4)CC3)CC2)NC(=O)[C@@H]2C[C@@H](O)CN2C(=O)[C@@H](NC(=O)C2(C#N)CC2)C(C)(C)C)cc1
unit symbol: %
Activity: 76

chemical structure: Cc1cc([C@H](C(=O)N2C[C@H](O)C[C@H]2C(=O)N[C@@H](CC(=O)NN2CCC(N3CCC(C#Cc4ccc(N5C(=S)N(c6ccc(C#N)c(C(F)(F)F)c6)C(=O)C5(C)C)cc4)CC3)CC2)c2ccc(-c3scnc3C)cc2)C(C)C)on1
unit symbol: %
Activity: 20

chemical structure: Cc1ncsc1-c1ccc([C@H](CC(=O)N2CCC(N3CCC(C#Cc4ccc(C(=O)N[C@H]5C(C)(C)[C@H](Oc6ccc(C#N)c(Cl)c6)C5(C)C)cc4)CC3)CC2)NC(=O)[C@@H]2C[C@@H](O)CN2C(=O)[C@@H](NC(=O)C2(F)CC2)C(C)(C)C)cc1
unit symbol: %
Activity: 89

[a] Cc1cc([C@H](C(=O)N2C[C@H](O)C[C@H]2C(=O)N[C@@H](CC(=O)N2CCC(N3CCC(C#Cc4ccc(C(=O)N[C@H]5C(C)(C)[C@H](Oc6ccc(C#N)c(Cl)c6)C5(C)C)cc4)CC3)CC2)c2ccc(-c3scnc3C)cc2)C(C)C)on1
[b] CC(=O)N[C@H](C(=O)N1C[C@H](O)C[C@H]1C(=O)N[C@@H](CC(=O)N1CCC(N2CCC(C#Cc3ccc(C(=O)N[C@H]4C(C)(C)[C@H](Oc5ccc(C#N)c(Cl)c5)C4(C)C)cc3)CC2)CC1)c1ccc(-c2scnc2C)cc1)C(C)(C)C
Req: Field: lower Activity | Options: a / b Output the label that corresponds to your choice.
Resp: b
